Where do the numbers come from? From the supplement of paper PMC10567573.

B1: LYSMD4 (parent)
chain: LLQRELAQEDSLNKLALQYGCKVA

# Variants of: B1
# MEASUREMENT PROTOCOL: protein stability index of a GFP-peptide fusion (GPS, HEK-293T) (PSI 1-6); higher = more stable;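 note: lentivirally expressed fusions sorted by FACS into six bins by GFP to DsRed ratio, PSI derived from sequencing read proportions per bin multiplied by bin number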
# SETTINGS: c terminus: a fixed tail appended
ASSAY READOUT: protein stability index

> print(dat)
     var  experimental.value
 1   L2F                2.25
 2  V23R                2.47
 3  G20I                2.42
 4   Q3Y                 1.3
 5   R4H                1.56
 6   Q8R                1.47
 7  V23M                1.75
 8  Q18I                 2.4
 9   Q8M                1.92
10   Q8F                1.59
11  S11C                1.79
12  L15F                1.07
13   L1Q                1.32
14  C21Q                2.98
15   L2Q                1.86
16   L2I                2.18
17  N13W                 1.8
18  L15P                3.97
19   L1G                1.52
20   E5Q                   1
21  L12M                1.97
22   L6C                2.02
23   Q8Y                2.21
24  S11H                2.01
25  G20C                1.65
26   L2T                1.91
27  L12T                3.48
28  L15N                3.75
29   E5D                1.44
30  K22D                2.08
31  C21P                2.59
32  L17I                1.45
33  K22Y                1.35
34  V23G                2.35
35   E5N                1.71
36   L6D                 2.5
37  L12E                3.83
38  Q18E                2.65
39  S11Y                2.28
40  S11M                2.39
41  C21G                2.66
42  Q18P                2.95
